- Test system: Fibroblast
- protocol summary: Incucyte cell viability with human fibroblast; further: filed as whole numbers so only -1 and 0 and 1 occur
- Format: toxicity, cell-based
- measurement parameters: 18 h, 10 µM, compound concentration 10 uM, replicate number 1, timepoint 18 hours
result type: Growth Rate
Lab note: jot the number down without any unit.

Q: Recorded Growth Rate of `CNc1cc(Oc2cc(C(=O)Nc3cc(N4CCN(C)CC4)cc(C(F)(F)F)c3)ccc2C)ncn1` , please.
A: 0

Q: Recorded Growth Rate of O=C1NC(c2ccccn2)Sc2ccccc21 (centres undefined) [BTZO-4] , please.
A: 1

Q: Recorded Growth Rate of O=S(=O)(NC1CCC(c2cc(F)ccc2F)(S(=O)(=O)c2ccc(Cl)cc2)CC1)C(F)(F)F (centres undefined) [MRK-560] , please.
A: 1

Q: Recorded Growth Rate of O=C1O[C@]2(CC[C@H](C(=O)Nc3ccn(-c4ccccc4F)n3)CC2)c2cnccc21 [MK-0557] , please.
A: 0

Q: Recorded Growth Rate of C=CC(=O)N1CCC([C@@H]2CCNc3c(C(N)=O)c(-c4ccc(Oc5ccccc5)cc4)nn32)CC1 [ZANUBRUTINIB] , please.
A: 0

Q: Recorded Growth Rate of `O=C(Nc1cccnn1)N1CCC(=Cc2cccc(Oc3ccc(C(F)(F)F)cn3)c2)CC1` , please.
A: 0

Q: Recorded Growth Rate of `Cc1cnc(Nc2ccc(F)cc2Cl)nc1-c1c[nH]c(C(=O)N[C@H](CO)c2cccc(Cl)c2)c1` , please.
A: 0

Q: Recorded Growth Rate of `CCn1c(=O)c(-c2ccc(-c3cncs3)cc2Cl)cc2cnc(Nc3ccc(N4CCN(C)CC4)cc3)nc21` , please.
A: 1

Q: Recorded Growth Rate of O=C(Cc1ccc(-c2ccc(OCCN3CCOCC3)cc2)cn1)NCc1ccccc1 [TIRBANIBULIN] , please.
A: 0
